The measured values listed here are drawn from the RNAGym collection of RNA variant scans (doi:10.1126/science.aae0568).

I'd be grateful if you could share measured yeast fitness for these entries.
B1: tRNA (parent)
chain: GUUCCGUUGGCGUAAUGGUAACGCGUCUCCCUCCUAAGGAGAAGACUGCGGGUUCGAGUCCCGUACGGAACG

Variants of: B1
Experiment: yeast fitness relative to wild type (ratio to wild type); higher = fitter; tRNA-Arg(CCU), competitive growth, 37 C, YPD
Variants at the floor of the assay were thinned out.
Answers are plain numbers.

Please supply yeast fitness for each of the following items, keeping them in order.
1. C4U A21G C29G C31U G41A G50C A70C
2. A21C G25C U26G
3. U3C C49G G63C

Output:
1. 0.599
2. 0.59
3. 0.617
